target: human chorionic gonadotropin (hCG) heterodimer (Homo sapiens, UniProt P01215;P0DN86 P01215:25-116,P0DN86:21-165); assay: filter; details: tags: Calbiochem or Vitro Diagnostics (14,000 IU/mg); chain copies: alpha/beta heterodimer (stated); label: 32P
Sequence (P01215 25-116, chain 1 of 2, other chains not shown): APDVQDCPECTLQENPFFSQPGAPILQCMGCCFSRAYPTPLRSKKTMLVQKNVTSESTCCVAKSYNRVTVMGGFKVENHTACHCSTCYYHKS
I'd appreciate it if you could supply binding signal values for the items below.
API: value field is a number in % bound at 100 nM; no unit string.

[in] Entry Class 1 ligand 11 (ssRNA, 2'-F all pyrimidines) RNA: GGGAGACAAGAAUAAACGCUCAAUUUAGAAGAUCCCGGAGUCUCGUUGGUCGUUGAACGAUCCUUCGACAGGAGGCUCACAACAGGC : reported binding signal = ?
[out] 3.09

[in] Returns the measured binding signal for the input binder. Input: Class 1 ligand 43 (ssRNA, 2'-F all pyrimidines) RNA: GGGAGACAAGAAUAAACGCUCAACCAGAUAAUCCCAAUGAGUCCCUCGAGAUUGAACGAUCCUUUCGACAGGAGGCUCACAACAGGC
[out] 0.93

[in] Field request: binding signal | item: Class 1 ligand 16 (ssRNA, 2'-F all pyrimidines) RNA: GGGAGACAAGAAUAAACGCUCAAUUCGGAAGAUCCCAGAGUCUCGUUGGUCGUUGAACGAUCCUUCGACAGGAGGCUCACAACAGGC
[out] 5.41

[in] Give its binding signal value. Item: Class 1 ligand 30 (ssRNA, 2'-F all pyrimidines) RNA: GGGAGACAAGAAUAAACGCUCAAAAGUCACUCGCAGCGCUUCCUGGUUCGAUUGAACGAUCCUUUCGACAGGAGGCUCACAACAGGC
[out] 0.58

[in] Return reported binding signal; argument: Class 1 ligand 20 (ssRNA, 2'-F all pyrimidines) RNA: GGGAGACAAGAAUAAACGCUCAAGUCAUAAGCCUAACGGUCCCUAGUCAAUUGAACGAUCCUUCGACAGGAGGCUCACAACAGGC
[out] 0.13

[in] Look at this binder and give its reported binding signal. Class 1 ligand 37 (ssRNA, 2'-F all pyrimidines) RNA: GGGAGACAAGAAUAAACGCUCAAUUUGGAAGGUCCUGAGUCUCGUUGGUCGUUGAACGAUCCUUCGACAGGAGGCUCACAACAGGC
[out] 1.89

[in] Quick check: binding signal of Class 1 ligand 40 (ssRNA, 2'-F all pyrimidines) RNA: GGGAGACAAGAAUAAACGCUCAAUUCUGAAGAUCCCAGAGUCUCGUUGGUCGUUGAACGAUCCUUCGACAGGAGGCUCACAACAGGC ?
[out] 2.2

[in] Would you kindly share the measured binding signal for Class 1 ligand 56 (ssRNA, 2'-F all pyrimidines) RNA: GGGAGACAAGAAUAAACGCUCAAUUUGGAAGAUCCCUGGAGUCUCGUUGGUCGUUGAACGAUCCUUCGACAGGAGGCUCACAACAGGC ?
[out] 3.85
